Tested Target: natural suppressor cells (Mus musculus, UniProt P97292)
Construct: cAMP accumulation
Sequence (P97292 whole entry): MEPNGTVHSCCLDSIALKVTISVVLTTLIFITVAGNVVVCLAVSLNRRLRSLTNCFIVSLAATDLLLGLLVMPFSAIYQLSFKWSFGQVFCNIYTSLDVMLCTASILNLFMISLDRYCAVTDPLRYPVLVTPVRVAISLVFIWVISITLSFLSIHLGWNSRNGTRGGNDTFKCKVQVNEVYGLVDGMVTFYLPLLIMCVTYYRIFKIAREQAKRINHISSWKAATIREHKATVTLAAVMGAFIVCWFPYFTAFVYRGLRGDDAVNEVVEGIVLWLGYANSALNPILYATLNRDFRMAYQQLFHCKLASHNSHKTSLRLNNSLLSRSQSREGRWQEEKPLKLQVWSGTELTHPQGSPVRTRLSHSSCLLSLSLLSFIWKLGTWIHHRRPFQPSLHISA
Method Summary: Effects of histamine derivatives on cAMP accumulation in natural suppressor (NS) cells
Format: cell-based, mouse (BALB/c)
Condition: NS cells; histamine = 1.0
Source text: NS cells were obtained and cultured as follows: four-to six-month old BALB/c mice were anesthetized with pentobarbital and all major lymphoid organs, including all major lymph nodes, the spleen, and the thymus, were irradiated as described by Slavin et al., Science (1976) 193:1252. The skull, lungs, and hind legs were shielded with lead. The mice were given 200 rad per day, 5 times per week, to a total dose of 3400 rad. […]
Endpoint: Relative potency

>>> result("CNC(=O)CNC(=O)[C@H](Cc1ccc(NC(=O)CCCCC(C)NCCc2c[nH]cn2)cc1)NC(=O)OC(C)(C)C (stereo partly drawn)")
"Inactive"
>>> result("CC(CCCC(=O)Nc1ccc(C(F)(F)F)cc1)NCCc1c[nH]cn1 (stereo not drawn)")
"Inactive"
>>> result("CCCCCC(=O)NCCc1c[nH]cn1")
"Inactive"

Cited source: patent USRE35224E
